- tested.system: T1, recombinant human IL6 (human, UniProt P05231 30-212)
- T1 construct: Amine-coupled to a CM5 chip in the Biacore assay; used biotinylated in the Alphascreen assays; also called interleukin-6; biotinylated human IL6
- test.name: SPR, Biacore 3000; IL6 amine-coupled on CM5 chip, periplasmic extract injected
Measured koff, listed per entry.

binder | koff, s⁻¹
PMP7G4 (VHH, Monovalent Nanobody) VHH: AVQLVESGGGLVQPGGSLRLSCAASGSIFSRLAMDWYRQAPGKQRELVASISRSGTTMAADSVKGRFTISRDNAENMVYLQMNSLKPEDTAVYVCMAFDGYSGSDYWGRGTQVTVSS | 0.00208
PMP6D5 (VHH) VHH: QVQLVESGGGLVQAGGSLRLSCAASGRTFSPYTMGWFRQPPGKVREFVGRINWSGIRNYADSVKGRFTISRDNNNNTVYLQMNRLKPEDTAVYYCAAASQSGSGYDSWGQGTQVTVSS | 0.000511
PMP14E9 (VHH, Monovalent Nanobody) VHH: AVQLVESGGGLVQAGGSLRLSCAASGGTFSAFPMGWFRQAPGKEREFVAGISQSGGSTHYSDSVKGRFTISKENAKSTVYLQMNSLKPEDTAVYYCAARGRTLALRNYAYTTEVGYDDWGQGTQVTVSS | 0.000531
PMP12C5 (VHH, Monovalent Nanobody) VHH: DVQLVESGGGLVQAGGSLRLSCAASGGTFTSYPMGWFRQAPGKERKFVAGISQSGGSTAYSDSVKGRFTISRENAKTTVYLQMNSLKPEDTAVYYCAARGRTLFLRGYAYTTEVGYDDWGQGTQVTVSS | 0.000211
PMP14E1 (VHH, Monovalent Nanobody) VHH: QVQLVESGGGLVQAGGSLRLSCAASGRTFSSYPMGWFRQAPGKERKFVAGISQSGGSTAYSDSVKGRFTISRENAKSTVYLQMNSLKPEDTAVYYCAARDKTLALRDYAYTTDVGYDDWGQGTQVTVSS | 0.00057
PMP10A6 (VHH, Monovalent Nanobody) VHH: QVQLVESGGGLVQAGGSLRLSCASSGRTFSSYVMGWFRQTPGKEREFVSTINWSGSNGYYADSVKGRFTISRDNAKNTVYLQMNNLKPEDTAVYYCAASAGGFLVPRVGQGYDYWGQGTQVTVSS | 0.00104
PMP21E7 (VHH, Monovalent Nanobody) VHH: AVQLVESGGGLVQAGGSLRLSSVVSGGTFSSYPIAWFRQPPGKEREFVAAISWRGGNTYYADSVKGRFTISRDNAKNTVYLQMNSLKPEDTAVYYSAAERAGVLLTKVPEGYDYWGQGTQVTVSS | 0.000772
NC3 (VHH, Monovalent Nanobody) VHH: EVQLVESGGGLVQPGGSLRLSCAASGNIAAINVMNWYRQAPGTQREFVAAITSGGRKNYADSVKGRFTISRDNAKNTVHLQMNSLKPEDTAVYYCNADAPLASDDDVAPADYWGQGTQVTVSS | 0.00056
